Cited source: ChEMBL document CHEMBL3102746

Assay: Anticomplement activity in New Zealand White rabbit erythrocytes assessed as concentration required for 50% hemolytic inhibition by alternative pathway after 30 mins
Assay type: functional, cell-based
Settings: Oryctolagus cuniculus, Erythrocyte
endpoint-name: log10 of AP50 (log10 of the value in mM)
Note the log scale: values are log10 of AP50 expressed in mM.

COc1cc(C(=O)OC[C@H]2O[C@@H](O[C@@]34C[C@H]5[C@@]3(CO)[C@H]3O[C@]5(O)C[C@]4(C)O3)[C@H](O)[C@@H](O)[C@@H]2O)ccc1O    0.05
COc1ccc(C(=O)OC[C@H]2O[C@@H](O[C@]34C[C@@H]5[C@@]6(O)C[C@]3(C)OC(O6)[C@]54COC(=O)c3ccccc3)[C@H](O)[C@@H](O)[C@@H]2O)cc1    0.45
COc1ccc(C(=O)OC[C@]23C4O[C@]5(O)C[C@](C)(O4)[C@]2(O[C@@H]2O[C@H](COC(=O)c4ccccc4)[C@@H](O)[C@H](O)[C@H]2O)C[C@H]53)cc1    0.20
C[C@@]12C[C@@]3(O)O[C@@H](O1)[C@]1(COC(=O)c4ccc(O)cc4)[C@H]3C[C@@]12O[C@@H]1O[C@H](COC(=O)c2cc(O)c(O)c(O)c2)[C@@H](O)[C@H](O)[C@H]1O    -0.60
C[C@@]12C[C@@]3(O)O[C@@H](O1)[C@]1(COC(=O)c4ccc(O)cc4)[C@@H]3C[C@]12O[C@@H]1O[C@H](CO)[C@@H](O)[C@H](O)[C@H]1O    0.52

Consider the additional molecule presented here.
For reference, reported log10 of AP50 for `COc1ccc(C(=O)OC[C@]23[C@H]4O[C@]5(O)C[C@](C)(O4)[C@@]2(O[C@@H]2O[C@H](CO)[C@@H](O)[C@H](O)[C@H]2O)C[C@H]35)cc1` stands at 0.56

* * *

Experiment: Anticomplement activity in sheep erythrocytes assessed as concentration required for 50% hemolytic inhibition by classical pathway after 30 mins by spectrophotometry
Assay type: functional, cell-based
Conditions: Ovis aries; Erythrocyte
endpoint-name: INH (mM)
Field format: number, assumed mM, no unit text.

The following compounds have reported results that may help.
C[C@@]12C[C@@]3(O)O[C@@H](O1)[C@]1(COC(=O)c4ccccc4)[C@@H]3C[C@]12O[C@@H]1O[C@H](COC(=O)c2ccc(O)cc2)[C@@H](O)[C@H](O)[C@H]1O    0.52
C[C@@]12C[C@@]3(O)O[C@@H](O1)[C@]1(COC(=O)c4ccccc4)[C@@H]3C[C@]12O[C@@H]1O[C@H](COC(=O)c2cc(O)c(O)c(O)c2)[C@@H](O)[C@H](O)[C@H]1O    0.21
C[C@@]12C[C@@]3(O)O[C@@H](O1)[C@]1(COC(=O)c4ccc(O)cc4)[C@H]3C[C@@]12O[C@@H]1O[C@H](COC(=O)c2ccc(O)cc2)[C@@H](O)[C@H](O)[C@H]1O    0.34

For reference, reported INH for `C[C@@]12C[C@@]3(O)O[C@@H](O1)[C@]1(COC(=O)c4ccc(O)cc4)[C@H]3C[C@@]12O[C@@H]1O[C@H](COC(=O)c2cc(O)c(O)c(O)c2)[C@@H](O)[C@H](O)[C@H]1O` stands at 0.14

For reference, reported INH for `C[C@@]12C[C@@]3(O)OC(O1)[C@]1(COC(=O)c4ccc(O)cc4)[C@@H]3C[C@@]21O[C@@H]1O[C@H](COC(=O)c2ccccc2)[C@@H](O)[C@H](O)[C@H]1O` stands at 0.58

For reference, reported INH for `COc1ccc(C(=O)OC[C@]23C4O[C@]5(O)C[C@](C)(O4)[C@]2(O[C@@H]2O[C@H](COC(=O)c4ccccc4)[C@@H](O)[C@H](O)[C@H]2O)C[C@H]53)cc1` stands at 1.29

For reference, reported INH for `COc1cc(C(=O)OC[C@H]2O[C@@H](O[C@@]34C[C@H]5[C@@]3(CO)[C@H]3O[C@]5(O)C[C@]4(C)O3)[C@H](O)[C@@H](O)[C@@H]2O)ccc1O` stands at 0.89

For reference, reported INH for `C[C@@]12C[C@@]3(O)OC(O1)[C@]1(COC(=O)c4ccc(O)cc4)[C@@H]3C[C@@]21O[C@@H]1O[C@H](COC(=O)c2ccccc2)[C@@H](O[C@@H]2O[C@H](CO)[C@@H](O)[C@H](O)[C@H]2O)[C@H](O)[C@H]1O` stands at 0.33

For reference, reported INH for `COc1ccc(C(=O)OC[C@H]2O[C@@H](O[C@]34C[C@@H]5[C@@]6(O)C[C@]3(C)OC(O6)[C@]54COC(=O)c3ccccc3)[C@H](O)[C@@H](O)[C@@H]2O)cc1` stands at 2.36

For reference, reported INH for `COc1ccc(C(=O)OC[C@H]2O[C@@H](O[C@]34C[C@@H]5[C@@]6(O)C[C@]3(C)OC(O6)[C@]54COC(=O)c3ccc(O)cc3)[C@H](O)[C@@H](O)[C@@H]2O)cc1` stands at 0.41

For reference, reported INH for `COc1ccc(C(=O)OC[C@]23[C@H]4O[C@]5(O)C[C@](C)(O4)[C@@]2(O[C@@H]2O[C@H](CO)[C@@H](O)[C@H](O)[C@H]2O)C[C@H]35)cc1` stands at 2.67
